Target: 11β-HSD2 (Homo sapiens, UniProt P80365)
Experiment summary: 11β-HSD2 activity in intact SW-620 cells
Type: cell-based
Recorded IC50 for the following molecules

{"columns": ["Molecule", "IC50 [nM]"],
 "data": [
  ["CC(O)C(C)n1ncn(-c2ccc(N3CCN(c4ccc(OCC5COC(Cn6cncn6)(c6ccc(Cl)cc6Cl)O5)cc4)CC3)cc2)c1=O (centres unmarked) [OHI, hydroxyitraconazole]", 820],
  ["CCC(C)n1ncn(-c2ccc(N3CCN(c4ccc(OCC5COC(Cn6cncn6)(c6ccc(Cl)cc6Cl)O5)cc4)CC3)cc2)c1=O (centres unmarked) [itraconazole]", 1070]
]}

###

Target: 11β-HSD2 (Homo sapiens)
Sequence (P80365 1-405): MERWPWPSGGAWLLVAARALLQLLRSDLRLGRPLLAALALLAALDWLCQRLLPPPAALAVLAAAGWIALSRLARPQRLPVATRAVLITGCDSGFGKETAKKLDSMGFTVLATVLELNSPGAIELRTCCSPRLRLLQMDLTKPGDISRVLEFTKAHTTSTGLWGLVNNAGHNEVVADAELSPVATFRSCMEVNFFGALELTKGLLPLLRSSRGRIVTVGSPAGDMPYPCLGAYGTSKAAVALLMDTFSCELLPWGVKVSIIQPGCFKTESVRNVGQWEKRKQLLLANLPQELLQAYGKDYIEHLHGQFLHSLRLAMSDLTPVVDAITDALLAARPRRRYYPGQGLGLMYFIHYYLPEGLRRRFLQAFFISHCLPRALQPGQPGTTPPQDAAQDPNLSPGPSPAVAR
Experiment summary: 11β-HSD2 activity in intact MCF-7 cells
Assay type: cell-based
The following compounds are listed with their measured IC50 values.
Measured endpoint: IC50 (nM)

{"columns": ["Compound", "Recorded number"],
 "data": [
  ["CC(O)C(C)n1ncn(-c2ccc(N3CCN(c4ccc(OCC5COC(Cn6cncn6)(c6ccc(Cl)cc6Cl)O5)cc4)CC3)cc2)c1=O (centres unmarked) [OHI, hydroxyitraconazole]", 680],
  ["CCC(C)n1ncn(-c2ccc(N3CCN(c4ccc(OCC5COC(Cn6cncn6)(c6ccc(Cl)cc6Cl)O5)cc4)CC3)cc2)c1=O (centres unmarked)", 1190]
]}

###

Target: 11β-HSD2 (Homo sapiens)
Experiment summary: 11β-HSD2 activity in lysates of HEK-293 cells stably expressing human 11β-HSD2
Format: biochemical
Experimental setup: read-out: inhibition of 11β-HSD2 enzyme activity

{"columns": ["Smi", "inhibition at 20 µM"],
 "data": [
  ["CCOc1ccc2ccccc2c1C(=O)N[C@@H]1C(=O)N2[C@@H]1SC(C)(C)[C@@H]2C(=O)O", "< 40%"],
  ["CCN(CC)Cc1cc(Nc2ccnc3cc(Cl)ccc23)ccc1O", "< 40%"],
  ["CCC[C@@H]1C[C@@H](C(=O)N[C@@H]([C@H]2O[C@H](SC)[C@H](O)[C@@H](O)[C@H]2O)[C@@H](C)O)N(C)C1", "< 40%"]
]}

###

Target: 11β-HSD2 (Homo sapiens, UniProt P80365)
Experiment summary: 11β-HSD2 activity in lysates of HEK-293 cells stably expressing human 11β-HSD2
Assay type: biochemical
Each entry below lists one item and its recorded IC50 value.

{"columns": ["Molecule", "Target", "IC50"],
 "data": [
  ["CCC(C)n1ncn(-c2ccc(N3CCN(c4ccc(OCC5COC(Cn6cncn6)(c6ccc(Cl)cc6Cl)O5)cc4)CC3)cc2)c1=O (stereo not drawn)", "11β-HSD2 (Homo sapiens, UniProt P80365)", "139 nM"],
  ["CC(O)C(C)n1ncn(-c2ccc(N3CCN(c4ccc(OCC5COC(Cn6cncn6)(c6ccc(Cl)cc6Cl)O5)cc4)CC3)cc2)c1=O (stereo not drawn) [OHI, hydroxyitraconazole]", "11β-HSD2 (Homo sapiens, UniProt P80365)", "223 nM"],
  ["CC[C@@H]([C@H](C)O)n1ncn(-c2ccc(N3CCN(c4ccc(OC[C@@H]5CO[C@@](Cn6cncn6)(c6ccc(F)cc6F)C5)cc4)CC3)cc2)c1=O", "11β-HSD2 (Homo sapiens, UniProt P80365)", "460 nM"]
]}
